Data provenance: patent US20130274178A1

Molecular target: T1, HIV-1YU2 gp120 (HIV-1 strain YU-2, UniProt P35961 32-498, limits assumed)
T1 construct: domain: gp120
Assay: SPR direct binding; YU-2 gp120 immobilized (~3500 RU), peptide as analyte
Where no end group is shown, it is not given here. [ ]: non-standard residue; d: D form.
property_label: Kd

Request: State its Kd: RINNI[Azp‑triazole‑ferrocene] (also called RINNIP) [UM16]
Result: > 10 µM
